molecular target: T1, recombinant cynomolgus monkey IL-13 (cynomolgus monkey, UniProt Q0PW92 21-132); test: SPR
T1 construct: bought; also called rc-IL-13; cIL-13
T1 sequence (Q0PW92 entry or part of it): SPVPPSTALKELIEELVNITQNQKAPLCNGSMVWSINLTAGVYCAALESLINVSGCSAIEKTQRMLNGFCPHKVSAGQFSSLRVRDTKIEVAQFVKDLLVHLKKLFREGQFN
QUANTITY MEASURED: kon (M⁻¹ s⁻¹)
Give the quantity in M⁻¹ s⁻¹, number only.

BINDER | kon / M⁻¹ s⁻¹
BDG38.125 (antibody, V domains shown, IgG1) VH: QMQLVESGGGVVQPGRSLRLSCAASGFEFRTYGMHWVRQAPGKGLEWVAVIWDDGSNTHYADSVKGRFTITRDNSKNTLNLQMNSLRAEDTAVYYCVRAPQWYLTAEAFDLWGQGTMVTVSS VL: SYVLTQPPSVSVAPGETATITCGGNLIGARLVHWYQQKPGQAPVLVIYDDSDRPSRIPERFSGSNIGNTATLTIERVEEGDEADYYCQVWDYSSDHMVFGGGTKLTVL | 3.46e+07
BDG38.128 (antibody, V domains shown, IgG1) VH: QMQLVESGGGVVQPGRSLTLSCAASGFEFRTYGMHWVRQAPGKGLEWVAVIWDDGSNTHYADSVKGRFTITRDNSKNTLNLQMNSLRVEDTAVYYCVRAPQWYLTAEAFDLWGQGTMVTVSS VL: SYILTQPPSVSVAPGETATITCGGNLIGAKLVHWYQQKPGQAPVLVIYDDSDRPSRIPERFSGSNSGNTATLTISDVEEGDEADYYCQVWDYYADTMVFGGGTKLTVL | 3.02e+07
BDG38.096 (antibody, V domains shown, IgG1) VH: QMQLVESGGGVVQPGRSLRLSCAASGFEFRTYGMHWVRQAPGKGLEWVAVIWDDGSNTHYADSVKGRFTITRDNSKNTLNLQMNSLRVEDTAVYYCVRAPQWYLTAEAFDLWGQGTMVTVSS VL: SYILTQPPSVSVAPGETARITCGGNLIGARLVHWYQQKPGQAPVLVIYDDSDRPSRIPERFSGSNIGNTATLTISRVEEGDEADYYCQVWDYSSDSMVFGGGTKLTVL | 5.47e+07
BDG38.076 (antibody, V domains shown, IgG1) VH: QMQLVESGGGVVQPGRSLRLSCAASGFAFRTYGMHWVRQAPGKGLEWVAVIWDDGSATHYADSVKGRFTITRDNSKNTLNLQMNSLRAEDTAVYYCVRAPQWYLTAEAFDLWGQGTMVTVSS VL: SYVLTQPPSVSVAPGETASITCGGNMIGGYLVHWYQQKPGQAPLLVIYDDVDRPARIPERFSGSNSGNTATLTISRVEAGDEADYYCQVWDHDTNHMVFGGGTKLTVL | 8.16e+06

Query: Could you share which kon value was measured for BDG38.092 (antibody, V domains shown, IgG1) VH: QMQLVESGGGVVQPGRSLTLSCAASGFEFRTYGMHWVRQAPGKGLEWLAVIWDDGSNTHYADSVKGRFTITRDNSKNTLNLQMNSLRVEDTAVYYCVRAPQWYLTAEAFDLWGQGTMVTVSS VL: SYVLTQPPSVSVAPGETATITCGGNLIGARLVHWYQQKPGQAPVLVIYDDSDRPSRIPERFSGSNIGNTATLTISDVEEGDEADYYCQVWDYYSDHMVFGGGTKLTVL ?
Response: 3.01e+07
